- MEASURED ON: M. tuberculosis LigD, wild type, His-tag removed by TEV (MST analyte) (M. tuberculosis, UniProt P9WNV3 1-759)
- EXPERIMENT NOTES: MST

>  <BINDER>
M. tuberculosis Ku E246A (natural protein) MRAIWTGSIAFGLVNVPVKVYSATADHDIRFHQVHAKDNGRIRYKRVCEACGEVVDYRDLARAYESGDGQMVAITDDDIASLPEERSREIEVLEFVPAADVDPMMFDRSYFLEPDSKSSKSYVLLAKTLAETDRMAIVHFTLRNKTRLAALRVKDFGKREVMMVHTLLWPDEIRDPDFPVLDQKVEIKPAELKMAGQVVDSMADDFNPDRYHDTYQEQLQELIDTKLEGGQAFTAEDQPRLLDEPADVSDLLAKLEASVKARSKANSNVPTPP

>  <binding result>
binds

$$$$
